Tested on: PC-3
Assay: NCI-60 one-dose SRB screening
Format: cell-based
Details: Homo sapiens, PC-3, Prostate Cancer, 10 µM one dose, 48 h, read-out: growth percentage
Assay readout: activity at 10 µM (%)

[O-][n+]1onc(-c2ccccc2)c1COc1ccc(Nc2ncnc3c2cnn3-c2ccccc2)cc1; 98.1
Cc1nn(-c2ccc(Br)cc2)c2nc(CNc3ccc(NCc4c(-c5ccccc5)no[n+]4[O-])cc3)[nH]c(=O)c12 [14c]; 96.6
Cc1nc(Nc2ccc(OCc3c(-c4ccccc4)no[n+]3[O-])cc2)c2cnn(-c3ccc(Br)cc3)c2n1; 103
O=c1[nH]c(CNc2ccc(NCc3c(-c4ccccc4)no[n+]3[O-])cc2)nc2c1cnn2-c1ccccc1 [14a]; 63.3
Cc1nn(-c2ccccc2)c2nc(CCl)[nH]c(=O)c12 [13b]; 102
Cc1nn(-c2ccccc2)c2ncnc(Nc3ccc(OCc4c(-c5ccccc5)no[n+]4[O-])cc3)c12; 83.5
O=c1[nH]c(CCl)nc2c1cnn2-c1ccccc1 [13a]; 105
Nc1ccc(NCc2c(-c3ccccc3)no[n+]2[O-])cc1; 95.1
[O-][n+]1onc(-c2ccccc2)c1CNc1ccc(Nc2nc(C(F)(F)F)nc3c2cnn3-c2ccc(Br)cc2)cc1 [12b]; 48.2
Cc1nn(-c2ccccc2)c2nc(C(F)(F)F)nc(Nc3ccc(NCc4c(-c5ccccc5)no[n+]4[O-])cc3)c12 [12a]; 45.6

###

Test system: SF-539
Assay: NCI-60 one-dose SRB screening
Assay type: cell-based
Settings: Homo sapiens, SF-539, CNS Cancer, 10 µM one dose, 48 h, read-out: growth percentage
Entries and their measured activity at 10 µM follow.
Assay readout: activity at 10 µM (%)

Cc1nn(-c2ccc(Br)cc2)c2nc(CNc3ccc(NCc4c(-c5ccccc5)no[n+]4[O-])cc3)[nH]c(=O)c12 [14c]; 102
Cc1nc(Nc2ccc(OCc3c(-c4ccccc4)no[n+]3[O-])cc2)c2c(C)nn(-c3ccc(Br)cc3)c2n1; 96.1
[O-][n+]1onc(-c2ccccc2)c1COc1ccc(Nc2ncnc3c2cnn3-c2ccc(Br)cc2)cc1; 98.4
O=c1[nH]c(CCl)nc2c1cnn2-c1ccccc1 [13a]; 97.1
Cc1nn(-c2ccc(Br)cc2)c2nc(CCl)[nH]c(=O)c12 [13c]; 77
O=c1[nH]c(CNc2ccc(NCc3c(-c4ccccc4)no[n+]3[O-])cc2)nc2c1cnn2-c1ccccc1 [14a]; 92.6
Nc1ccc(NCc2c(-c3ccccc3)no[n+]2[O-])cc1; 104
Cc1nc(Nc2ccc(OCc3c(-c4ccccc4)no[n+]3[O-])cc2)c2cnn(-c3ccccc3)c2n1; 102

###

Recorded activity at 10 µM values for a group of molecules are listed next.
Tested on: SW-620
Assay: NCI-60 one-dose SRB screening
Format: cell-based
Conditions: Homo sapiens, SW-620, Colon Cancer, 10 µM one dose, 48 h, read-out: growth percentage
Protocol: The structures of the synthesized compounds 6a–h, 12a–c, 11, 13a–c, and 14a–c were submitted to the National Cancer Institute’s Developmental Therapeutics Program (NCI-DTP), and all of them were selected for preliminary in vitro anticancer activity screening against NCI-59 human cancer cell lines at a concentration of 10 µM, using the sulforhodamine B (SRB) assay to determine the growth percentage and cell viability. […]
Assay readout: activity at 10 µM (%)

[O-][n+]1onc(-c2ccccc2)c1CNc1ccc(Nc2nc(C(F)(F)F)nc3c2cnn3-c2ccc(Br)cc2)cc1 [12b]; 84.8
Cc1nc(Nc2ccc(OCc3c(-c4ccccc4)no[n+]3[O-])cc2)c2c(C)nn(-c3ccccc3)c2n1; 119
Cc1nn(-c2ccc(Br)cc2)c2nc(CNc3ccc(NCc4c(-c5ccccc5)no[n+]4[O-])cc3)[nH]c(=O)c12 [14c]; 111
[O-][n+]1onc(-c2ccccc2)c1COc1ccc(Nc2ncnc3c2cnn3-c2ccccc2)cc1; 106
O=c1[nH]c(CNc2ccc(NCc3c(-c4ccccc4)no[n+]3[O-])cc2)nc2c1cnn2-c1ccccc1 [14a]; 92.8
Cc1nc(Nc2ccc(OCc3c(-c4ccccc4)no[n+]3[O-])cc2)c2cnn(-c3ccc(Br)cc3)c2n1; 109
Cc1nn(-c2ccccc2)c2nc(CNc3ccc(NCc4c(-c5ccccc5)no[n+]4[O-])cc3)[nH]c(=O)c12 [14b]; 110
Cc1nn(-c2ccc(Br)cc2)c2ncnc(Nc3ccc(OCc4c(-c5ccccc5)no[n+]4[O-])cc3)c12; 107
Cc1nn(-c2ccccc2)c2ncnc(Nc3ccc(OCc4c(-c5ccccc5)no[n+]4[O-])cc3)c12; 107
Cc1nn(-c2ccc(Br)cc2)c2nc(CCl)[nH]c(=O)c12 [13c]; 110

###

Test system: SK-MEL-2
Assay: NCI-60 one-dose SRB screening
Assay type: cell-based
Settings: Homo sapiens, SK-MEL-2, Melanoma, 10 µM one dose, 48 h, read-out: growth percentage
Parameter activity at 10 µM: see the listing below.
Assay readout: activity at 10 µM (%)

Cc1nn(-c2ccc(Br)cc2)c2nc(CNc3ccc(NCc4c(-c5ccccc5)no[n+]4[O-])cc3)[nH]c(=O)c12 [14c]; 107
[O-][n+]1onc(-c2ccccc2)c1CNc1ccc(Nc2nc(C(F)(F)F)nc3c2cnn3-c2ccc(Br)cc2)cc1 [12b]; 99.8
Cc1nc(Nc2ccc(OCc3c(-c4ccccc4)no[n+]3[O-])cc2)c2c(C)nn(-c3ccc(Br)cc3)c2n1; 96.9
Cc1nn(-c2ccc(Br)cc2)c2ncnc(Nc3ccc(OCc4c(-c5ccccc5)no[n+]4[O-])cc3)c12; 101
Cc1nn(-c2ccccc2)c2nc(C(F)(F)F)nc(Nc3ccc(NCc4c(-c5ccccc5)no[n+]4[O-])cc3)c12 [12a]; 106
Cc1nn(-c2ccc(Br)cc2)c2nc(C(F)(F)F)nc(Nc3ccc(NCc4c(-c5ccccc5)no[n+]4[O-])cc3)c12 [12c]; 104
Cc1nc(Nc2ccc(OCc3c(-c4ccccc4)no[n+]3[O-])cc2)c2cnn(-c3ccccc3)c2n1; 109
O=c1[nH]c(CCl)nc2c1cnn2-c1ccccc1 [13a]; 104
Cc1nn(-c2ccccc2)c2ncnc(Nc3ccc(OCc4c(-c5ccccc5)no[n+]4[O-])cc3)c12; 103
[O-][n+]1onc(-c2ccccc2)c1COc1ccc(Nc2ncnc3c2cnn3-c2ccccc2)cc1; 105
Nc1ccc(NCc2c(-c3ccccc3)no[n+]2[O-])cc1; 105
O=c1[nH]c(CNc2ccc(NCc3c(-c4ccccc4)no[n+]3[O-])cc2)nc2c1cnn2-c1ccccc1 [14a]; 77.8
Cc1nc(Nc2ccc(OCc3c(-c4ccccc4)no[n+]3[O-])cc2)c2c(C)nn(-c3ccccc3)c2n1; 121
Cc1nn(-c2ccc(Br)cc2)c2nc(CCl)[nH]c(=O)c12 [13c]; 103

###

System: OVCAR-4
Experiment: NCI-60 one-dose SRB screening
Format: cell-based
Conditions: Homo sapiens, OVCAR-4, Ovarian Cancer, 10 µM one dose, 48 h, read-out: growth percentage
Description: The structures of the synthesized compounds 6a–h, 12a–c, 11, 13a–c, and 14a–c were submitted to the National Cancer Institute’s Developmental Therapeutics Program (NCI-DTP), and all of them were selected for preliminary in vitro anticancer activity screening against NCI-59 human cancer cell lines at a concentration of 10 µM, using the sulforhodamine B (SRB) assay to determine the growth percentage and cell viability. […]
Catalogue of compounds with associated activity at 10 µM
Assay readout: activity at 10 µM (%)

Cc1nn(-c2ccccc2)c2nc(C(F)(F)F)nc(Nc3ccc(NCc4c(-c5ccccc5)no[n+]4[O-])cc3)c12 [12a]; 70.8
Cc1nn(-c2ccccc2)c2nc(CNc3ccc(NCc4c(-c5ccccc5)no[n+]4[O-])cc3)[nH]c(=O)c12 [14b]; 102
[O-][n+]1onc(-c2ccccc2)c1COc1ccc(Nc2ncnc3c2cnn3-c2ccc(Br)cc2)cc1; 100
Cc1nn(-c2ccc(Br)cc2)c2nc(C(F)(F)F)nc(Nc3ccc(NCc4c(-c5ccccc5)no[n+]4[O-])cc3)c12 [12c]; 81.3
Cc1nn(-c2ccccc2)c2ncnc(Nc3ccc(OCc4c(-c5ccccc5)no[n+]4[O-])cc3)c12; 90.6
Cc1nc(Nc2ccc(OCc3c(-c4ccccc4)no[n+]3[O-])cc2)c2cnn(-c3ccc(Br)cc3)c2n1; 99.5
O=c1[nH]c(CCl)nc2c1cnn2-c1ccccc1 [13a]; 100
Cc1nn(-c2ccc(Br)cc2)c2ncnc(Nc3ccc(OCc4c(-c5ccccc5)no[n+]4[O-])cc3)c12; 95.7
Cc1nc(Nc2ccc(OCc3c(-c4ccccc4)no[n+]3[O-])cc2)c2cnn(-c3ccccc3)c2n1; 102
Cc1nn(-c2ccc(Br)cc2)c2nc(CCl)[nH]c(=O)c12 [13c]; 116

###

The entries below come with measured activity at 10 µM values attached.
Test system: SK-MEL-5
Experiment: NCI-60 one-dose SRB screening
Format: cell-based
Conditions: Homo sapiens, SK-MEL-5, Melanoma, 10 µM one dose, 48 h, read-out: growth percentage
Description: The structures of the synthesized compounds 6a–h, 12a–c, 11, 13a–c, and 14a–c were submitted to the National Cancer Institute’s Developmental Therapeutics Program (NCI-DTP), and all of them were selected for preliminary in vitro anticancer activity screening against NCI-59 human cancer cell lines at a concentration of 10 µM, using the sulforhodamine B (SRB) assay to determine the growth percentage and cell viability. […]
Assay readout: activity at 10 µM (%)

Cc1nn(-c2ccc(Br)cc2)c2ncnc(Nc3ccc(OCc4c(-c5ccccc5)no[n+]4[O-])cc3)c12; 96.5
Cc1nn(-c2ccccc2)c2nc(CCl)[nH]c(=O)c12 [13b]; 110
Cc1nn(-c2ccc(Br)cc2)c2nc(CCl)[nH]c(=O)c12 [13c]; 103
[O-][n+]1onc(-c2ccccc2)c1COc1ccc(Nc2ncnc3c2cnn3-c2ccccc2)cc1; 102
Cc1nc(Nc2ccc(OCc3c(-c4ccccc4)no[n+]3[O-])cc2)c2cnn(-c3ccc(Br)cc3)c2n1; 99.7
Nc1ccc(NCc2c(-c3ccccc3)no[n+]2[O-])cc1; 112
Cc1nn(-c2ccc(Br)cc2)c2nc(CNc3ccc(NCc4c(-c5ccccc5)no[n+]4[O-])cc3)[nH]c(=O)c12 [14c]; 104
O=c1[nH]c(CNc2ccc(NCc3c(-c4ccccc4)no[n+]3[O-])cc2)nc2c1cnn2-c1ccccc1 [14a]; 85.3
